Origin of values: ChEMBL document CHEMBL1909294

# System: Hepatotoxicity;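 also: Hepatitis-related hepatic side effect score taken from the training data of DILIps, a prediction system for drug-induced liver injury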; also: call rule not given here
# Conditions: Liver

Compound	Test System	HepSE_hepatitis
CO[C@H]1/C=C/O[C@@]2(C)Oc3c(C)c(O)c4c(c3C2=O)C2=NC3(CCN(CC(C)C)CC3)NC2=C(NC(=O)/C(C)=C\C=C\[C@H](C)[C@H](O)[C@@H](C)[C@@H](O)[C@@H](C)[C@H](OC(C)=O)[C@@H]1C)C4=O [RIFABUTIN]	Hepatotoxicity	1
CN1CCCCC1CCN1c2ccccc2Sc2ccc([S+](C)[O-])cc21 (centres undefined) [MESORIDAZINE]	Hepatotoxicity	0
NNCCc1ccccc1 [PHENELZINE]	Hepatotoxicity	0
Nc1nc(=O)n([C@@H]2CS[C@H](CO)O2)cc1F [EMTRICITABINE]	Hepatotoxicity	0
Nc1ccn([C@H]2CC[C@@H](CO)O2)c(=O)n1 [ZALCITABINE]	Hepatotoxicity	1
CC(C)(C(=O)O)c1ccc(C(O)CCCN2CCC(C(O)(c3ccccc3)c3ccccc3)CC2)cc1 (centres undefined) [FEXOFENADINE]	Hepatotoxicity	0
Nc1ccn([C@@H]2O[C@H](CO)[C@@H](O)[C@@H]2O)c(=O)n1 [CYTARABINE]	Hepatotoxicity	0
CN(C/C=C/c1ccccc1)Cc1cccc2ccccc12 [NAFTIFINE]	Hepatotoxicity	0
CC(C)(C)NC(=O)[C@@H]1C[C@@H]2CCCC[C@@H]2CN1C[C@@H](O)[C@H](Cc1ccccc1)NC(=O)[C@H](CC(N)=O)NC(=O)c1ccc2ccccc2n1	Hepatotoxicity	1
Clc1cccc(Cl)c1N=C1NCCN1 [CLONIDINE]	Hepatotoxicity	1
CC(=O)O [ACETIC ACID]	Hepatotoxicity	0
Nc1ccc(S(N)(=O)=O)cc1 [SULFANILAMIDE]	Hepatotoxicity	0
CNCCCC12CCC(c3ccccc31)c1ccccc12 [MAPROTILINE]	Hepatotoxicity	0
NCCCC(O)(P(=O)(O)O)P(=O)(O)O [ALENDRONIC ACID]	Hepatotoxicity	0
